target: CDK2/CycE (Homo sapiens, UniProt P24941); assay: CDK2/CycE kinase assay (TR-FRET, 2 mM ATP); conditions: 2 mM ATP (high ATP); median; read-out: CDK2/CyclinE, 2 mM ATP (high ATP), IC50 (median)
Measured Parameter: pIC50
Remember, pIC50 is on a log scale: it is -log10 of the molar concentration.

Solved cases (3 shown):
Compound | Tested Target | pIC50
CC1(C)CN(c2nc(NCc3nnc(-c4ccccc4)[nH]3)n3ncc(Br)c3n2)CCO1 [Example 68] | CDK2/CycE (Homo sapiens, UniProt P24941) | 4.97
Brc1cnn2c(NCc3nc4cccnc4[nH]3)nc(N3CCNCC3)nc12.O=CO [Example 19, formic acid salt] | CDK2/CycE (Homo sapiens, UniProt P24941) | 4.94
Fc1ccccc1-c1cnc(CNc2nc(N3CCOCC3)nc3c(Br)cnn23)[nH]1 [Example 86] | CDK2/CycE (Homo sapiens, UniProt P24941) | 5.71

query: Fill blank: measured pIC50 of the compound Brc1cnn2c(NCc3nc4ccccc4[nH]3)nc(N3C[C@@H]4CCCN[C@@H]4C3)nc12 [Example 146] is ____.
result: 5.15

query: What value of measured pIC50 is listed for FC(F)(F)c1ccc2[nH]c(CNc3nc(N4CCOCC4)nc4c(Br)cnn34)nc2c1 [Example 339] ?
result: 5.17
